Hello, the source for this data is patent US10246453B2, in case you need it.

# experimental-system: NaV1.1 (Homo sapiens (Human), UniProt P35498)
# method: Sodium Influx Assay (Flux), NaV1.1
# Format: cell-based
# measurement-conditions: Trex HEK293 cells, ANG2 dye; arithmetic mean
Where a name gives a salt, the structure may show the parent alone.
Catalogue of IC50 readings, one per entry.
experimental-endpoint: IC50 (µM)

>>> recorded_result("O=S(=O)(Nc1nccs1)c1ccc(OC2CCN(Cc3cccc(F)c3)CC2)c(Cl)c1")
7.48
>>> recorded_result("CN(c1cc(F)c(S(=O)(=O)Nc2cscn2)cc1Cl)[C@H]1CCN(CCOCc2ccccc2)C1")
4.97
>>> recorded_result("CN(c1ccc(S(=O)(=O)Nc2cscn2)cc1Cl)[C@H]1CCN(Cc2cccc(C(F)F)c2)C1 [Example 253, formate]")
2.67

----------
Catalogue of IC50 readings, one per entry.
# experimental-system: NaV1.6 (Homo sapiens (Human))
# method: Sodium Influx Assay (Flux), NaV1.6
# measurement-conditions: read-out: Flux NaV1.6 IC50; Trex HEK293 cells, ANG2 dye; arithmetic mean
experimental-endpoint: IC50 (nM)

>>> recorded_result("O=S(=O)(Nc1cscn1)c1cc(Cl)c(O[C@H]2CCN(Cc3cccc(C(F)F)c3)C[C@H]2F)cc1F")
6130
>>> recorded_result("CC1(Nc2ccc(S(=O)(=O)Nc3nccs3)cc2Cl)CCN(Cc2ccccc2)C1 (centres unmarked)")
176
>>> recorded_result("O=S(=O)(Nc1cscn1)c1cc(Cl)c(N[C@@H]2CCN(Cc3ccccc3)C2)cc1F")
6040
>>> recorded_result("O=S(=O)(Nc1nccs1)c1ccc(OC2CCN(Cc3ccccc3)CC2)c(Cl)c1 [Example 95, 2,2,2-trifluoroacetate]")
416
>>> recorded_result("Cc1cc(S(=O)(=O)Nc2cscn2)c(F)cc1N(C)[C@H]1CCN(Cc2ccn(C(F)F)n2)C1")
482

----------
# experimental-system: NaV1.1 (Homo sapiens (Human))
# method: Electrophysiological Assay (EP), patch voltage clamp, NaV1.1
# Format: cell-based
# measurement-conditions: HEK-293 cells, whole-cell patch clamp, inactivated state; arithmetic mean
pIC50: −log10 of the molar value. Where a name gives a salt, the structure may show the parent alone.
experimental-endpoint: pIC50

>>> recorded_result("O=S(=O)(Nc1nccs1)c1cc(Cl)c(O[C@@H]2C[C@H]3CC[C@@H](C2)N3Cc2ccccc2)cc1F [Example 17]")
"< 5.00"
>>> recorded_result("CN(c1cc(F)c(S(=O)(=O)Nc2cscn2)cc1Cl)[C@H]1CCN(Cc2ccccc2)C1 [Example 38, 2,2,2-trifluoroacetate]")
"< 5.00"
>>> recorded_result("C[C@H](c1ccccc1)N1CC[C@H](N(C)c2ccc(S(=O)(=O)Nc3nccs3)cc2Cl)C1 [Example 44]")
"< 5.00"
>>> recorded_result("CN(c1ccc(S(=O)(=O)Nc2cscn2)cc1Cl)[C@H]1CCN(Cc2ccccc2)C1 [Example 41, 2,2,2-trifluoroacetate]")
"< 5.00"
>>> recorded_result("O=S(=O)(Nc1ncns1)c1ccc(OC2CCN(Cc3ccccc3)CC2)c(Cl)c1 [Example 100, 2,2,2-trifluoroacetate]")
"< 5.00"
>>> recorded_result("C[C@@]1(Nc2ccc(S(=O)(=O)Nc3cscn3)cc2Cl)CCN(Cc2ccccc2)C1 [Example 225, formate]")
"< 5.00"
>>> recorded_result("CN(c1cc(F)c(S(=O)(=O)Nc2cscn2)cc1Cl)[C@H]1CCN([C@@H]2CCc3ccccc32)C1 [Example 246, 2,2,2-trifluoroacetate]")
"< 5.00"
>>> recorded_result("C[C@@H](c1ccccc1)N1CCC(Oc2ccc(S(=O)(=O)Nc3ncns3)cc2Cl)CC1 [Example 221, 2,2,2-trifluoroacetate]")
"< 5.00"
